molecular target: AsPC-1 HiBiT-KRASG12D (Homo sapiens, UniProt P01116, G12D); construct: insert the HiBiT tag onto the N-terminus of one or more of the endogenous KRAS alleles; endogenous in cells; host or cells: AsPC-1 (ATCC CRL-1682), CRISPR-Cas9 knock-in clone, one tagged allele; test: HiBiT degradation assay (G12D), AsPC-1 HiBiT-KRASG12D cells; format: cell-based; settings: AsPC-1 HiBiT-KRASG12D cells, 24 hours treatment, HiBiT luminescence
Sequence (P01116 1-188 isoform P01116-2 G12D): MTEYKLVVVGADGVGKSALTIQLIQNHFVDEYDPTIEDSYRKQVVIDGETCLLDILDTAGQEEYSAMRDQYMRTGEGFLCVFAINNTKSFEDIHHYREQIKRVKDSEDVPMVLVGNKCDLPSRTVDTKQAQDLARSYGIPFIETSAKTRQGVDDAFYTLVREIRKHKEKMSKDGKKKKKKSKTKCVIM
assay.metric: DC50

[[record]]
compound = "CCc1cccc2cc(O)cc(-c3ncc4c(N5CC6CCC(C5)N6)nc(OC[C@]56CCCN5[C@H](COC(=O)N5CCC(Oc7cc([C@@H](C(=O)N8C[C@H](O)C[C@H]8C(=O)N[C@@H](C)c8ccc(-c9scnc9C)cc8)C(C)C)on7)CC5)CC6)nc4c3F)c12"
result_value = "< 600 nM"

[[record]]
compound = "Cc1ncsc1-c1ccc([C@H](C)NC(=O)[C@@H]2C[C@@H](O)CN2C(=O)[C@@H](c2cc(N3CC4(CCN(CCOc5nc(N6CC7CCC(C6)N7)c6cnc(-c7cc(O)cc8ccc(F)c(F)c78)c(F)c6n5)CC4)C3)no2)C(C)C)cc1 (relative stereo)"
result_value = "< 600 nM"

[[record]]
compound = "CCc1cccc2cc(O)cc(-c3ncc4c(N5CC6CCC(C5)N6)nc(OCCN5CCC(COc6cc([C@@H](C(=O)N7C[C@H](O)C[C@H]7C(=O)N[C@@H](C)c7ccc(-c8scnc8C)cc7)C(C)C)on6)CC5)nc4c3F)c12"
result_value = "1000 to 3000 nM"

[[record]]
compound = "Cc1ncsc1-c1ccc([C@H](C)NC(=O)[C@@H]2C[C@@H](O)CN2C(=O)[C@@H](c2cc(N3CCN(C(=O)OC[C@@H]4CC[C@@]5(COc6nc(N7CC8CCC(C7)N8)c7cnc(-c8cc(O)cc(Cl)c8C8CC8)c(F)c7n6)CCCN45)CC3)no2)C(C)C)cc1 (relative stereo)"
result_value = "< 600 nM"

[[record]]
compound = "C#Cc1c(F)ccc2cccc(-c3ncc4c(N5CC6CCC(C5)N6)nc(OC[C@@]56CCCN5[C@H](COc5cc([C@H](C(=O)N7C[C@H](O)C[C@H]7C(=O)N[C@@H](C)c7ccc(-c8scnc8C)cc7)C(C)C)on5)CC6)nc4c3F)c12"
result_value = "< 600 nM"

[[record]]
compound = "Cc1ncsc1-c1ccc([C@H](C)NC(=O)[C@@H]2C[C@@H](O)CN2C(=O)[C@@H](c2cc(OC[C@@H]3CC[C@]4(COc5nc(N6CC7CCC(C6)N7)c6cnc(-c7cccc8ccc(F)c(F)c78)c(F)c6n5)CCCN34)no2)C(C)C)cc1"
result_value = "< 600 nM"

[[record]]
compound = "Cc1ncsc1-c1ccc([C@H](C)NC(=O)[C@@H]2C[C@@H](O)CN2C(=O)[C@@H](c2cc(OC3CN(C(=O)OC[C@@H]4CC[C@@]5(COc6nc(N7CC8CCC(C7)N8)c7cnc(-c8cc(O)cc(Cl)c8C8CC8)c(F)c7n6)CCCN45)C3)no2)C(C)C)cc1"
result_value = "< 600 nM"

[[record]]
compound = "CCc1cccc2cc(O)cc(-c3ncc4c(N5CC6CCC(C5)N6)nc(OC[C@@]56CCCN5[C@H](COC(=O)N(C)Cc5cc([C@H](C(=O)N7C[C@H](O)C[C@H]7C(=O)N[C@@H](C)c7ccc(-c8scnc8C)cc7)C(C)C)on5)CC6)nc4c3F)c12"
result_value = "< 600 nM"

[[record]]
compound = "CCc1cccc2cc(O)cc(-c3ncc4c(N5CCCCCC5)nc(OC[C@@]56CCCN5[C@H](COc5cc([C@@H](C(=O)N7C[C@H](O)C[C@H]7C(=O)N[C@@H](C)c7ccc(-c8scnc8C)cc7)C(C)C)on5)CC6)nc4c3F)c12 (single isomer, unassigned)"
result_value = "> 3000 nM"

[[record]]
compound = "CCc1cccc2cc(O)cc(-c3ncc4c(N5CC6CCC(C5)N6)nc(OCCN5CCC(CC6CCN(CC(=O)N[C@H](C(=O)N7C[C@H](O)C[C@H]7C(=O)N[C@@H](C)c7ccc(-c8scnc8C)cc7)C(C)(C)C)CC6)CC5)nc4c3F)c12"
result_value = "< 600 nM"

[[record]]
compound = "CCc1cccc2cc(O)cc(-c3ncc4c(N5CC6CCC(C5)N6)nc(OCCN5CCC[C@H](CN6CCN(c7cc([C@H](C(=O)N8C[C@H](O)C[C@H]8C(=O)N[C@@H](C)c8ccc(-c9scnc9C)cc8)C(C)C)on7)CC6)C5)nc4c3F)c12"
result_value = "< 600 nM"

[[record]]
compound = "CCc1cccc2cc(O)cc(-c3ncc4c(N5CC6CCC(C5)N6)nc(OC[C@@]56CCCN5[C@H](COC(=O)N5CCC(Oc7cc([C@H](C(=O)N8C[C@H](O)C[C@H]8C(=O)N[C@@H](C)c8ccc(-c9scnc9C)cc8)C(C)C)on7)CC5)CC6)nc4c3F)c12"
result_value = "< 600 nM"

[[record]]
compound = "C#Cc1c(F)ccc2cc(O)cc(-c3ncc4c(N5CC6CCC(C5)N6)nc(OCCN5CCC(CC6CN(c7cc([C@@H](C(=O)N8C[C@H](O)C[C@H]8C(=O)N[C@@H](C)c8ccc(-c9ccnn9C)cc8)C(C)C)on7)C6)CC5)nc4c3F)c12"
result_value = "> 3000 nM"

[[record]]
compound = "CCc1cccc2cc(O)cc(-c3ncc4c(N5C[C@H]6CC[C@@H](C5)N6)nc(OC[C@@H]5CC[C@@H](COC(=O)N6CC7(C6)CN(c6cc([C@H](C(=O)N8C[C@H](O)C[C@H]8C(=O)N[C@@H](C)c8ccc(-c9scnc9C)cc8)C(C)C)on6)C7)N5C)nc4c3F)c12"
result_value = "< 600 nM"

[[record]]
compound = "CCc1cccc2cc(O)cc(-c3ncc4c(N5CCCCCC5)nc(OC[C@]56CCCN5[C@H](COC(=O)N5CCN(c7cc([C@H](C(=O)N8C[C@H](O)C[C@H]8C(=O)N[C@@H](C)c8ccc(-c9scnc9C)cc8)C(C)C)on7)CC5)CC6)nc4c3F)c12 (relative stereo)"
result_value = "< 600 nM"


---

Each item that follows carries a reported Dmax.
biological target: AsPC-1 HiBiT-KRASG12D (Homo sapiens, UniProt P01116, G12D); construct: insert the HiBiT tag onto the N-terminus of one or more of the endogenous KRAS alleles; endogenous in cells; host or cells: AsPC-1 (ATCC CRL-1682), CRISPR-Cas9 knock-in clone, one tagged allele; assay: HiBiT degradation assay (G12D), AsPC-1 HiBiT-KRASG12D cells; format: cell-based; conditions: ASPC1, AsPC-1 HiBiT-KRASG12D cells, 24 hours treatment, maximum degradation observed
assay.metric: Dmax

[[record]]
compound = "CCc1cccc2cc(O)cc(-c3ncc4c(N5CC6CCC(C5)N6)nc(OC[C@@]56CCCN5[C@H](COC(=O)N5CCN(c7cc([C@H](C(=O)N8C[C@H](O)C[C@H]8C(=O)N[C@@H](C)c8ccc(-c9scnc9C)cc8)C(C)C)on7)CC5)CC6)nc4c3F)c12 (relative stereo) [Compound 107]"
assay_metric = "Dmax"
result_value = "80 to 100%"

[[record]]
compound = "CCc1cccc2cc(O)cc(-c3ncc4c(N5CC6CCC(C5)N6)nc(N5CC(CN6CCC(CC7CN(c8cc([C@H](C(=O)N9C[C@H](O)C[C@H]9C(=O)N[C@@H](C)c9ccc(-c%10scnc%10C)cc9)C(C)C)on8)C7)CC6)C5)nc4c3F)c12 [Compound 182]"
assay_metric = "Dmax"
result_value = "20 to 60%"

[[record]]
compound = "C#Cc1c(F)ccc2cc(O)cc(-c3ncc4c(N5CC6CCC(C5)N6)nc(OCCN5CCC(COc6cc([C@@H](C(=O)N7C[C@H](O)C[C@H]7C(=O)N[C@@H](C)c7ccc(-c8ccnn8C)cc7)C(C)C)on6)CC5)nc4c3F)c12 (relative stereo) [Compound 86]"
assay_metric = "Dmax"
result_value = "80 to 100%"

[[record]]
compound = "C#Cc1c(F)ccc2cc(O)cc(-c3ncc4c(N5CC6CCC(C5)N6)nc(OCCN5CCC(CN6CCN(c7cc([C@H](C(=O)N8C[C@H](O)C[C@H]8C(=O)N[C@@H](C)c8ccc(-c9scnc9C)cc8)C(C)C)on7)CC6)CC5)nc4c3F)c12 [Compound 206]"
assay_metric = "Dmax"
result_value = "80 to 100%"


---

target: AsPC-1 HiBiT-KRASG12D (Homo sapiens, UniProt P01116, G12D); construct: insert the HiBiT tag onto the N-terminus of one or more of the endogenous KRAS alleles; endogenous in cells; host or cells: AsPC-1 (ATCC CRL-1682), CRISPR-Cas9 knock-in clone, one tagged allele; experiment: HiBiT degradation assay (G12D), AsPC-1 HiBiT-KRASG12D cells; assay type: cell-based; details: ASPC1, AsPC-1 HiBiT-KRASG12D cells, 24 hours treatment, maximum degradation observed
assay.metric: Dmax

[[record]]
compound = "CCc1cccc2cc(O)cc(-c3ncc4c(N5CC6CCC(C5)N6)nc(OCCN5CCC(Oc6cc([C@H](C(=O)N7C[C@H](O)C[C@H]7C(=O)N[C@@H](C)c7ccc(-c8scnc8C)cc7)C(C)C)on6)CC5)nc4c3F)c12 (relative stereo)"
assay_metric = "Dmax"
result_value = "80 to 100%"

[[record]]
compound = "CCc1cccc2cc(O)cc(-c3ncc4c(N5CC6CCC(C5)N6)nc(OCCN5CC(CC6CCN(c7cc([C@H](C(=O)N8C[C@H](O)C[C@H]8C(=O)N[C@@H](C)c8ccc(-c9scnc9C)cc8)C(C)C)on7)CC6)C5)nc4c3F)c12"
assay_metric = "Dmax"
result_value = "80 to 100%"

[[record]]
compound = "CCc1cccc2cc(O)cc(-c3ncc4c(N5CC6CCC(C5)N6)nc(OC[C@]56CCCN5[C@H](COC(=O)N5CC7(C5)CN(c5cc([C@@H](C(=O)N8C[C@H](O)C[C@H]8C(=O)N[C@@H](C)c8ccc(-c9scnc9C)cc8)C(C)C)on5)C7)CC6)nc4c3F)c12"
assay_metric = "Dmax"
result_value = "20 to 60%"

[[record]]
compound = "CCc1cccc2cc(O)cc(-c3ncc4c(N5CC6CCC(C5)N6)nc(OCCN5CCC6(CC5)CC(Oc5cc([C@H](C(=O)N7C[C@H](O)C[C@H]7C(=O)N[C@@H](C)c7ccc(-c8scnc8C)cc7)C(C)C)on5)C6)nc4c3F)c12"
assay_metric = "Dmax"
result_value = "80 to 100%"

[[record]]
compound = "CCc1cccc2cc(O)cc(-c3ncc4c(N5CCCCCC5)nc(OC[C@]56CCCN5[C@H](COC(=O)N5CC7(C5)CN(c5cc([C@H](C(=O)N8C[C@H](O)C[C@H]8C(=O)N[C@@H](C)c8ccc(-c9scnc9C)cc8)C(C)C)on5)C7)CC6)nc4c3F)c12"
assay_metric = "Dmax"
result_value = "80 to 100%"

[[record]]
compound = "CCc1cccc2cc(O)cc(-c3ncc4c(N5CC6CCC(C5)N6)nc(OC[C@@]56CCCN5[C@H](COC(=O)N5CC(Oc7cc([C@H](C(=O)N8C[C@H](O)C[C@H]8C(=O)N[C@@H](C)c8ccc(-c9scnc9C)cc8)C(C)C)on7)C5)CC6)nc4c3F)c12"
assay_metric = "Dmax"
result_value = "80 to 100%"

[[record]]
compound = "CCc1cccc2cc(O)cc(-c3ncc4c(N5CC6CCC(C5)N6)nc(OC[C@@]56CCCN5[C@@H](COC(=O)N5CCN(c7cc([C@H](C(=O)N8C[C@H](O)C[C@H]8C(=O)N[C@@H](C)c8ccc(-c9scnc9C)cc8)C(C)C)on7)CC5)CC6)nc4c3F)c12"
assay_metric = "Dmax"
result_value = "80 to 100%"

[[record]]
compound = "CCc1cccc2cc(O)cc(-c3ncc4c(N5CC6CCC(C5)N6)nc(OC[C@@]56CCCN5[C@H](COC(=O)N5CCN(c7cc([C@@H](C(=O)N8C[C@H](O)C[C@H]8C(=O)N[C@@H](C)c8ccc(-c9scnc9C)cc8)C(C)C)on7)C[C@@H]5C)CC6)nc4c3F)c12"
assay_metric = "Dmax"
result_value = "< 20%"


Where do the numbers come from? From patent US20250206732A1.
